# Tested on: Enterococcus faecalis ATCC 2921
# test-details: Antimicrobial activity, serial dilution technique in Mueller–Hinton Broth 2
# Format: cell-based
# protocol-conditions: Ef; average of three ± SD; - means non-active
Everything with Minimum Inhibitory Concentration (MIC), Ef lower than 4 µg/mL is False; everything else, including exactly 4 µg/mL, is True.

Evaluate CCCCCCCCCCCCC[P+](C(C)(C)C)(C(C)(C)C)C(C)(C)C [Compound 13b] : Minimum Inhibitory Concentration (MIC), Ef at minimum 4 µg/mL?
False

Subsequent entry: CCCCCCCCCCCCCCCCCCCC[P+](C(C)(C)C)(C(C)(C)C)C(C)(C)C [Compound 20b]
True

====

Here's a batch of molecules along with measured MIC for Staphylococcus aureus ATCC 6538P FDA 209P.
Please provide the amount together with its unit, number first.

# example entries with known answers
CCCCCCCCCCCC[P+](C(C)(C)C)(C(C)(C)C)C(C)(C)C [Compound 12a, tri-tert-butyl(n-dodecyl)phosphonium]    0.5 µg/mL
CCCCCCCCC[P+](C(C)(C)C)(C(C)(C)C)C(C)(C)C    7.8 µg/mL
CCCCCCCCCCCCC[P+](C(C)(C)C)(C(C)(C)C)C(C)(C)C [Compound 13a, tri-tert-butyl(n-tridecyl)phosphonium]    0.2 µg/mL
CCCCCC[P+](C(C)(C)C)(C(C)(C)C)C(C)(C)C    125 µg/mL
CCCCCCC[P+](C(C)(C)C)(C(C)(C)C)C(C)(C)C    62.5 µg/mL
CCCCCCCCCCCCCCC[P+](C(C)(C)C)(C(C)(C)C)C(C)(C)C [Compound 15a]    0.2 µg/mL

Report MIC for CCCCCCCCCCC[P+](C(C)(C)C)(C(C)(C)C)C(C)(C)C [Compound 11a] tested on Staphylococcus aureus ATCC 6538P FDA 209P.
0.9 µg/mL

Subsequent entry: CCCCCCCCCCCCCCCC[P+](C(C)(C)C)(C(C)(C)C)C(C)(C)C [Compound 16a]
0.5 µg/mL

Subsequent entry: CCCCCCCCCCCCCCCCCCCC[P+](C(C)(C)C)(C(C)(C)C)C(C)(C)C [Compound 20a]
3.9 µg/mL

Subsequent entry: O=C(O)c1cn(C2CC2)c2cc(N3CCNCC3)c(F)cc2c1=O [Ciprofloxacin, reference compound]
0.5 µg/mL

====

# Test system: Staphylococcus aureus ATCC 6538P FDA 209P
# test-details: Antimicrobial activity, serial dilution technique in Mueller–Hinton Broth 2
# Assay type: cell-based
# protocol-conditions: average of three ± SD, - means non-active
Minimum Bactericidal and Fungicidal Concentration (MBC, MFC), Sa strictly under 2 µg/mL means Yes; at 2 µg/mL or over means No.

Answered examples (5):
CCCCCCCC[P+](C(C)(C)C)(C(C)(C)C)C(C)(C)C    No
CCCCCCCCCCCCC[P+](C(C)(C)C)(C(C)(C)C)C(C)(C)C [Compound 13b]    Yes
CCCCCCCCCCC[P+](C(C)(C)C)(C(C)(C)C)C(C)(C)C [Compound 11b]    No
CCCCCCCCCCCCC[P+](C(C)(C)C)(C(C)(C)C)C(C)(C)C [Compound 13a, tri-tert-butyl(n-tridecyl)phosphonium]    Yes
CCCCCCCCCCCCCCCC[P+](C(C)(C)C)(C(C)(C)C)C(C)(C)C [Compound 16b]    Yes

State whether 2 µg/mL exceeds Minimum Bactericidal and Fungicidal Concentration (MBC, MFC), Sa recorded for CCCCCCCCC[P+](C(C)(C)C)(C(C)(C)C)C(C)(C)C .
No

Subsequent entry: CCCCCCCCCCCCCCCCC[P+](C(C)(C)C)(C(C)(C)C)C(C)(C)C [Compound 17b]
Yes

Subsequent entry: CCCCCCCCCCCCCCCCCC[P+](C(C)(C)C)(C(C)(C)C)C(C)(C)C [Compound 18b]
No

Subsequent entry: CCCCCCCCCCCCCC[P+](C(C)(C)C)(C(C)(C)C)C(C)(C)C [Compound 14b]
Yes

====

# Tested on: Enterococcus faecalis ATCC 2921
# test-details: Antimicrobial activity, serial dilution technique in Mueller–Hinton Broth 2
# Assay type: cell-based
# protocol-conditions: Ef; average of three ± SD; - means non-active
metric-name: Minimum Inhibitory Concentration (MIC), Ef (µg/mL)
Report only the number, with the unit µg/mL understood.

# example entries with known answers
CCCCCCCCCCCCCCCCCC[P+](C(C)(C)C)(C(C)(C)C)C(C)(C)C [Compound 18a]    0.9
CCCCCCCCCCCCCCCCCC[P+](C(C)(C)C)(C(C)(C)C)C(C)(C)C [Compound 18b]    1.9
CCCCCCCCCCCCCCC[P+](C(C)(C)C)(C(C)(C)C)C(C)(C)C [Compound 15b]    0.5

Next compound, Minimum Inhibitory Concentration (MIC), Ef to be filled in.
Recorded Minimum Inhibitory Concentration (MIC), Ef of CCCCCCCCCCCCCC[P+](C(C)(C)C)(C(C)(C)C)C(C)(C)C [Compound 14a] , please.
1.9

====

# System: Enterococcus faecalis ATCC 2921
# test-details: Antimicrobial activity, serial dilution technique in Mueller–Hinton Broth 2
# Format: cell-based
# protocol-conditions: Ef; average of three ± SD; - means non-active
metric-name: Minimum Bactericidal and Fungicidal Concentration (MBC, MFC), Ef (µg/mL)
Report only the number, with the unit µg/mL understood.

# example entries with known answers
CCCCCCCCCCCCCCCCC[P+](C(C)(C)C)(C(C)(C)C)C(C)(C)C [Compound 17b]    3.9
CCCCCCCCCCC[P+](C(C)(C)C)(C(C)(C)C)C(C)(C)C [Compound 11b]    15.6
CCCCCCCCCCCCC[P+](C(C)(C)C)(C(C)(C)C)C(C)(C)C [Compound 13b]    3.9
CCCCCCCCCCCCCCCCCCCC[P+](C(C)(C)C)(C(C)(C)C)C(C)(C)C [Compound 20b]    15.6

Next compound, Minimum Bactericidal and Fungicidal Concentration (MBC, MFC), Ef to be filled in.
Report Minimum Bactericidal and Fungicidal Concentration (MBC, MFC), Ef for CCCCCCCCCCCCCCC[P+](C(C)(C)C)(C(C)(C)C)C(C)(C)C [Compound 15a] tested on Enterococcus faecalis ATCC 2921.
1.9

====

Documented Minimum Inhibitory Concentration (MIC), Ef across a set of compounds
# System: Enterococcus faecalis ATCC 2921
# test-details: Antimicrobial activity, serial dilution technique in Mueller–Hinton Broth 2
# Type: cell-based
# protocol-conditions: Ef; average of three ± SD; - means non-active
Report only the number, with the unit µg/mL understood.

CCCCCCCCCCC[P+](C(C)(C)C)(C(C)(C)C)C(C)(C)C [Compound 11b]    7.8
CCCCCCCCCCCC[P+](C(C)(C)C)(C(C)(C)C)C(C)(C)C [Compound 12a, tri-tert-butyl(n-dodecyl)phosphonium]    0.9
CCCCCCCCCCCCCCCCC[P+](C(C)(C)C)(C(C)(C)C)C(C)(C)C [Compound 17a]    1.9
CCCCCCCCCCCCC[P+](C(C)(C)C)(C(C)(C)C)C(C)(C)C [Compound 13a, tri-tert-butyl(n-tridecyl)phosphonium]    3.9

Recorded Minimum Inhibitory Concentration (MIC), Ef of CCCCCCCCC[P+](C(C)(C)C)(C(C)(C)C)C(C)(C)C [Compound 9b] , please.
31.3

Subsequent entry: CCCCCCCCCCCCCC[P+](C(C)(C)C)(C(C)(C)C)C(C)(C)C [Compound 14b]
0.9
